# Test Target: EPHB2 (UniProt P29323)
# Sequence (P29323 whole entry, looked up): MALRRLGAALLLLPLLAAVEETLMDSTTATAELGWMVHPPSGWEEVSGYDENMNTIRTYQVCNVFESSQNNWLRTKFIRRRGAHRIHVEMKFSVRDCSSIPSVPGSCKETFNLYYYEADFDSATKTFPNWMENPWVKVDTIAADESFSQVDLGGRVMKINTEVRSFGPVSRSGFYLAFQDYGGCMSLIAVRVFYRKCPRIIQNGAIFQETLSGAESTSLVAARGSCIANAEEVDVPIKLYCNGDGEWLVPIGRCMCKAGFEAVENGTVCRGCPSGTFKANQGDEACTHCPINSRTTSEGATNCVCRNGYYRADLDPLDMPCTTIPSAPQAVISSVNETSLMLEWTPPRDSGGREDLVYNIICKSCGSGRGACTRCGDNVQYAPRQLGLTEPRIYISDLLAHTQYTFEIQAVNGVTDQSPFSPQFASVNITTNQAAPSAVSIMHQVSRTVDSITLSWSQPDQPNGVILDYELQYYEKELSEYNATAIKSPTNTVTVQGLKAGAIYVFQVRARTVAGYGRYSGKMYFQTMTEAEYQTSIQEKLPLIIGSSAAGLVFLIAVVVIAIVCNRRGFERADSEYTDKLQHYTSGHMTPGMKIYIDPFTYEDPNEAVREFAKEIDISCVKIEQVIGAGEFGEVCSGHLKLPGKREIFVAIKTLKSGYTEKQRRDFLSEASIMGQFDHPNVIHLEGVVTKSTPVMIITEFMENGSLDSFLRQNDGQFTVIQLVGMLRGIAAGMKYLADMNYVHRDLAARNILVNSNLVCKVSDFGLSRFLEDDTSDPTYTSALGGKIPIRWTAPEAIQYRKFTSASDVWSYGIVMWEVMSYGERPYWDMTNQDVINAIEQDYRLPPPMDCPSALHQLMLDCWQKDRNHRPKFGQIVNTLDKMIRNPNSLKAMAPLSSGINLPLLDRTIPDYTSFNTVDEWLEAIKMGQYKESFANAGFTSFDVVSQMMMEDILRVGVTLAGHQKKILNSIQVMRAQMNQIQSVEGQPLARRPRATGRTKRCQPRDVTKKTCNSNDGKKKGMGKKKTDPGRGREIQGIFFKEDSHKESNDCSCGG
# Method Summary: phosphorylation enrichment, bacterial display (enrichment ratio); higher = better substrate or ligand; peptides without Tyr show the background;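 note: 11-residue human phosphosite peptides and single-mutation variants displayed on the E. coli surface, counted by deep sequencing, each peptide's frequency after selection divided by its frequency in the unselected input library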;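 note: frequency after pTyr selection over input frequency; kinase dosed for 20-30% of maximal phosphorylation in three min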
Observable: phosphorylation enrichment

[[record]]
sequence_code = "QEGPEYWDGNT [HLA-B_Y83_R86G]"
observable = "phosphorylation enrichment"
assay_result = 0.959

[[record]]
sequence_code = "SIIKDYFHRGA [GATM_Y203]"
observable = "phosphorylation enrichment"
assay_result = 0.438

[[record]]
sequence_code = "TKLKDYYIFNK [CCDC42_Y149_A144T]"
observable = "phosphorylation enrichment"
assay_result = 0.691

[[record]]
sequence_code = "PLTKVYVVEGS [ZMPSTE24_Y253]"
observable = "phosphorylation enrichment"
assay_result = 0.538

[[record]]
sequence_code = "GLDSSYLLRDS [SH2D1A_Y29_G27S]"
observable = "phosphorylation enrichment"
assay_result = 0.36

[[record]]
sequence_code = "KLIMECLPFGS [JAK2_Y931_Y931C_YF]"
observable = "phosphorylation enrichment"
assay_result = 0.588

[[record]]
sequence_code = "YLELNYKEDEY [MME_Y502]"
observable = "phosphorylation enrichment"
assay_result = 0.478

[[record]]
sequence_code = "GKMSSYAFFVQ [HMGB1_Y16]"
observable = "phosphorylation enrichment"
assay_result = 0.711

[[record]]
sequence_code = "QNTVDYYDLYG [PTPN11_Y62_G60V]"
observable = "phosphorylation enrichment"
assay_result = 3.38

[[record]]
sequence_code = "GVFSRHFTTFD [CLCA1_Y661_Y661H_YF]"
observable = "phosphorylation enrichment"
assay_result = 1.1

[[record]]
sequence_code = "FCVVRYCWLRR [MPZ_Y181_Y177C]"
observable = "phosphorylation enrichment"
assay_result = 0.603

[[record]]
sequence_code = "ARTNEYKIIRT [INA_Y87]"
observable = "phosphorylation enrichment"
assay_result = 0.425

[[record]]
sequence_code = "LGEGSYGKVKE [STK11_Y60]"
observable = "phosphorylation enrichment"
assay_result = 0.868

[[record]]
sequence_code = "GRGMPYGGRGD [TGM1_Y312_R307G]"
observable = "phosphorylation enrichment"
assay_result = 0.325

[[record]]
sequence_code = "SECCKYKTDNP [OSMR_Y689_I691T]"
observable = "phosphorylation enrichment"
assay_result = 0.413

[[record]]
sequence_code = "KDFETYQSFQN [CTNND2_Y1157_P1159S_YF]"
observable = "phosphorylation enrichment"
assay_result = 1.17

[[record]]
sequence_code = "LFMGDYVGRGY [PPP2CA_Y86_D88G]"
observable = "phosphorylation enrichment"
assay_result = 1.72

[[record]]
sequence_code = "ACEVLYNIVFM [NCF2_Y125_A128V]"
observable = "phosphorylation enrichment"
assay_result = 1.16

[[record]]
sequence_code = "TVFSDYLHPQF [CCPG1_Y569_YF]"
observable = "phosphorylation enrichment"
assay_result = 0.573

[[record]]
sequence_code = "DFLSSYSAVKQ [OAT_Y85_N89K]"
observable = "phosphorylation enrichment"
assay_result = 0.502

[[record]]
sequence_code = "QTEAEYRFIYM [PTPN11_Y511_Q510E]"
observable = "phosphorylation enrichment"
assay_result = 0.65

[[record]]
sequence_code = "WLQKLYNNFVN [MYO5C_Y526]"
observable = "phosphorylation enrichment"
assay_result = 0.57

[[record]]
sequence_code = "PFRFIYMAVQH [PTPN11_Y515_Q510P_YF]"
observable = "phosphorylation enrichment"
assay_result = 0.737

[[record]]
sequence_code = "IDQDKYAVRFI [FLNA_Y2388]"
observable = "phosphorylation enrichment"
assay_result = 0.458

[[record]]
sequence_code = "GSSSSCGQHGS [HRNR_Y517_Y517C]"
observable = "phosphorylation enrichment"
assay_result = 0.311

[[record]]
sequence_code = "KDQPDYKYQPR [SOX9_Y172_H169Q]"
observable = "phosphorylation enrichment"
assay_result = 0.415

[[record]]
sequence_code = "PKEEPYQMQEK [SLC5A3_Y565]"
observable = "phosphorylation enrichment"
assay_result = 1.26

[[record]]
sequence_code = "RRVLVYRGRGA [QDPR_Y16_G17R]"
observable = "phosphorylation enrichment"
assay_result = 0.714

[[record]]
sequence_code = "FKGKKYKPLDL [RPL35_Y78_YF]"
observable = "phosphorylation enrichment"
assay_result = 0.361


###

# System: Fer (mouse)
# Method Summary: phosphorylation enrichment, bacterial display (enrichment ratio); higher = better substrate or ligand; peptides without Tyr show the background
Each record here notes measured phosphorylation enrichment.
Observable: phosphorylation enrichment

[[record]]
sequence_code = "PVQAPYQKVVA [HBB_Y131_A130P]"
observable = "phosphorylation enrichment"
assay_result = 0.381

[[record]]
sequence_code = "RHPYFYAPELL [ALB_Y174]"
observable = "phosphorylation enrichment"
assay_result = 0.476

[[record]]
sequence_code = "TKLKDYYIFNK [CCDC42_Y149_A144T]"
observable = "phosphorylation enrichment"
assay_result = 0.538

[[record]]
sequence_code = "SSQAHYRLSAF [ADAMTS9_Y100]"
observable = "phosphorylation enrichment"
assay_result = 0.347

[[record]]
sequence_code = "PLLLSYYLIKW [NUP160_Y773]"
observable = "phosphorylation enrichment"
assay_result = 0.633

[[record]]
sequence_code = "PFRFIYMAVQH [PTPN11_Y515_Q510P_YF]"
observable = "phosphorylation enrichment"
assay_result = 0.563

[[record]]
sequence_code = "YFRDGHMPRQY [GSS_Y270_Y270H]"
observable = "phosphorylation enrichment"
assay_result = 0.436

[[record]]
sequence_code = "ELAVNYQEQAS [SLC9A9_Y591_I589V]"
observable = "phosphorylation enrichment"
assay_result = 0.519

[[record]]
sequence_code = "RRIHCYRGHLW [VHL_Y112_S111C]"
observable = "phosphorylation enrichment"
assay_result = 0.66

[[record]]
sequence_code = "VEGIGYDFIPT [CBS_Y308]"
observable = "phosphorylation enrichment"
assay_result = 0.43

[[record]]
sequence_code = "RIFDYYSARKT [STOX1_Y858_A863T]"
observable = "phosphorylation enrichment"
assay_result = 0.441

[[record]]
sequence_code = "EGELRYMHSRV [ABCD1_Y281_K276E]"
observable = "phosphorylation enrichment"
assay_result = 0.395

[[record]]
sequence_code = "QFQEKYKQVEQ [HCN4_Y531_YF]"
observable = "phosphorylation enrichment"
assay_result = 0.63

[[record]]
sequence_code = "VIKDKYPKAHF [APTX_Y209_R213H_YF]"
observable = "phosphorylation enrichment"
assay_result = 0.355


###

# Test Target: FGFR1 (UniProt P11362)
# Sequence (P11362 whole entry, looked up): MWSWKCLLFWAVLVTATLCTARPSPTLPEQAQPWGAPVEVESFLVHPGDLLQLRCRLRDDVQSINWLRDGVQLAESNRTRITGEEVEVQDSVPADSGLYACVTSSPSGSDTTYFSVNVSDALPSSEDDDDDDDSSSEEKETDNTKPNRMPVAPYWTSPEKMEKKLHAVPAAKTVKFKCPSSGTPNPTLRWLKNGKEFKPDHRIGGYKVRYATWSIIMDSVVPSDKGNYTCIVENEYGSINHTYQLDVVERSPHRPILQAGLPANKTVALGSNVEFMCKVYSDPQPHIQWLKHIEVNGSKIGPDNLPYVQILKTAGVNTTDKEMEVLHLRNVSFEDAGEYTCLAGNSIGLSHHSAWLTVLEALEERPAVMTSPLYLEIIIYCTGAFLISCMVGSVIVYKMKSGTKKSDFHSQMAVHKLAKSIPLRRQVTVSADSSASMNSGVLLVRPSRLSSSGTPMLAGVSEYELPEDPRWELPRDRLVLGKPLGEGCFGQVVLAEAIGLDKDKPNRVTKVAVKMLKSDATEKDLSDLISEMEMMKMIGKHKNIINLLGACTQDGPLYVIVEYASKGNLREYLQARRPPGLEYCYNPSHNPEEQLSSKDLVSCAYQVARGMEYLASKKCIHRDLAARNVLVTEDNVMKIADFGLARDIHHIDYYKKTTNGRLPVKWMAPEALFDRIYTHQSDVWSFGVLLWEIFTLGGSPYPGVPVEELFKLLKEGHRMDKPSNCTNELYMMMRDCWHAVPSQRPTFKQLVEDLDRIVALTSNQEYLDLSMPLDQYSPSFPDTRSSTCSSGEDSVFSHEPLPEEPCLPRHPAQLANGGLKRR
# Method Summary: phosphorylation enrichment, bacterial display (enrichment ratio); higher = better substrate or ligand; peptides without Tyr show the background
Observable: phosphorylation enrichment

[[record]]
sequence_code = "YLELNYKEDEY [MME_Y502]"
assay_result = 4.36

[[record]]
sequence_code = "LGEGSYGKVKE [STK11_Y60]"
assay_result = 1.21

[[record]]
sequence_code = "RGLQVYHRRNA [LRP2_Y2010]"
assay_result = 1.1

[[record]]
sequence_code = "IKNPQYFSDAC [NTRK1_Y496_E492K]"
assay_result = 0.548

[[record]]
sequence_code = "YLNSSYINIST [IL23R_Y178_T175N]"
assay_result = 2.69

[[record]]
sequence_code = "EGLRRYLENGK [HLA-A_Y195_W191G]"
assay_result = 0.315

[[record]]
sequence_code = "YRASYYRRGDR [LTK_Y677]"
assay_result = 0.511


###

# Test system: Fer (mouse)
# Method Summary: phosphorylation enrichment, bacterial display (enrichment ratio); higher = better substrate or ligand; peptides without Tyr show the background
Each record here notes measured phosphorylation enrichment.
Observable: phosphorylation enrichment

[[record]]
sequence_code = "CRIELYRIVES [IGFBP1_Y181_V183I]"
assay_result = 0.579

[[record]]
sequence_code = "CPYNLYAEQFS [HGD_Y40_L44F]"
assay_result = 2.09

[[record]]
sequence_code = "DTDSSYCIPIA [GAB1_Y373_T377I]"
assay_result = 0.483

[[record]]
sequence_code = "LLREWYLPDPF [SIX3_Y225_Q227P_YF]"
assay_result = 0.871

[[record]]
sequence_code = "SISLRYEGRVY [ABL1_Y167]"
assay_result = 0.546

[[record]]
sequence_code = "TVLWLYTGTRP [UGT1A1_Y337_R336L]"
assay_result = 0.527

[[record]]
sequence_code = "CLNAIYQNNLT [GSR_Y158_R153C]"
assay_result = 3.44

[[record]]
sequence_code = "ACCLLYCGDVV [TUBA4A_Y319_R320C]"
assay_result = 3.7

[[record]]
sequence_code = "QEGPEYWDGNT [HLA-B_Y83_R86G]"
assay_result = 0.533

[[record]]
sequence_code = "VDGSLYETHPQ [HK1_Y417_K418E]"
assay_result = 9.06

[[record]]
sequence_code = "VNQSGYTLIRK [ATP6V0A2_Y688_R685Q]"
assay_result = 0.401

[[record]]
sequence_code = "SKNYTYIWWLN [PSG4_Y271]"
assay_result = 0.638

[[record]]
sequence_code = "GSESDYIVMPN [SCARB1_Y133]"
assay_result = 0.455

[[record]]
sequence_code = "KVNKIYFPDFI [LIG3_Y767_YF]"
assay_result = 0.4

[[record]]
sequence_code = "SSYSGYIMMPN [LEF1_Y114]"
assay_result = 0.604

[[record]]
sequence_code = "GFEEAYSVSKK [PAFAH1B1_Y28_F31S_YF]"
assay_result = 0.39

[[record]]
sequence_code = "ARSHIYTFSSC [MEFV_Y741_A744S]"
assay_result = 0.497

[[record]]
sequence_code = "APAHKYHGGGG [HBD_Y146_L142P]"
assay_result = 0.329

[[record]]
sequence_code = "TVHCDYLNIPH [TAF1L_Y1385]"
assay_result = 0.46

[[record]]
sequence_code = "ATARPYSPYII [LRP5_Y1528_R1529S]"
assay_result = 6.92

[[record]]
sequence_code = "HEGKIYEFNQV [ZNF665_Y162_YF]"
assay_result = 22.6

[[record]]
sequence_code = "KAIMTYVFSFY [ACTN4_Y260_S262F]"
assay_result = 0.54

[[record]]
sequence_code = "QLPRGYISIPV [BAG3_Y205]"
assay_result = 0.642

[[record]]
sequence_code = "LVMFIDAIFGM [SCN1A_Y1684_Y1684D]"
assay_result = 1.63

[[record]]
sequence_code = "QQLQGYVPSNF [FRK_Y99_I100V_YF]"
assay_result = 0.584

[[record]]
sequence_code = "PVDTFYDSTRG [DYNC2H1_Y2231_M2227V_YF]"
assay_result = 0.917

[[record]]
sequence_code = "HFVDEYDPTIE [KRAS_Y32]"
assay_result = 0.886

[[record]]
sequence_code = "DTKDDYNALSV [IL17RB_Y457]"
assay_result = 0.483

[[record]]
sequence_code = "YCIDHYLGKEM [G6PD_Y202_R198C]"
assay_result = 0.952

[[record]]
sequence_code = "YLNSSYINIST [IL23R_Y178_T175N]"
assay_result = 0.439

[[record]]
sequence_code = "CEQELYSQLVF [WAS_Y102_W97C_YF]"
assay_result = 10.7

[[record]]
sequence_code = "SMAKYYASEIA [ACADSB_Y373]"
assay_result = 0.495

[[record]]
sequence_code = "PKFHSYVSLPF [PLXNA2_Y293]"
assay_result = 0.713

[[record]]
sequence_code = "LQLLGYRPVYS [CHST6_Y358]"
assay_result = 0.49

[[record]]
sequence_code = "VNKIFYPDFIV [LIG3_Y768_YF]"
assay_result = 0.5

[[record]]
sequence_code = "SHSMKYFDTAV [HLA-C_Y31_R30K]"
assay_result = 0.357

[[record]]
sequence_code = "SVKVFYKKCWS [EPHA7_Y202_YF]"
assay_result = 0.532

[[record]]
sequence_code = "VDGSVYELHPS [GCK_Y413_K414E]"
assay_result = 16

[[record]]
sequence_code = "PIYEGYGLPHA [ACTA1_Y171_A172G]"
assay_result = 20.9

[[record]]
sequence_code = "CGQDPYIRELG [UROS_Y19]"
assay_result = 0.534

[[record]]
sequence_code = "FHKALYTVRTF [PDE6C_Y266_S270T_YF]"
assay_result = 0.427

[[record]]
sequence_code = "VPANRYDLLRL [FARSB_Y72_C76R]"
assay_result = 0.452

[[record]]
sequence_code = "GGRKGYGDFSR [RECQL5_Y478]"
assay_result = 0.352

[[record]]
sequence_code = "YRASYYRRGDR [LTK_Y677]"
assay_result = 0.496

[[record]]
sequence_code = "KLVQLYGVCTK [BTK_Y461]"
assay_result = 0.439

[[record]]
sequence_code = "DDFDLYGGEKF [PTPN11_Y66_Y62D_YF]"
assay_result = 1.72

[[record]]
sequence_code = "AIDDKYSRREE [SART1_Y685]"
assay_result = 0.434

[[record]]
sequence_code = "IIGNGYFFHVF [MYBPC3_Y1135_R1138H_YF]"
assay_result = 0.398

[[record]]
sequence_code = "QKNVSYVSTVS [TASOR_Y1043]"
assay_result = 0.403

[[record]]
sequence_code = "QMVGMYASFFM [AVPR2_Y124_S127F_YF]"
assay_result = 5.31

[[record]]
sequence_code = "PKEQKYSFLQN [GH1_Y68]"
assay_result = 0.627

[[record]]
sequence_code = "LHNLFYQLEAE [PKP2_Y616_S615F]"
assay_result = 1.66

[[record]]
sequence_code = "SGSIHYSRVPR [GLB1_Y57]"
assay_result = 0.535

[[record]]
sequence_code = "FGPPQYNIQFS [ERBB2IP_Y977_YF]"
assay_result = 0.342

[[record]]
sequence_code = "GRQVIYTENER [GPR143_Y231_G229V]"
assay_result = 0.382

[[record]]
sequence_code = "LKGQVYILGLE [ASS1_Y359_R363L]"
assay_result = 0.664

[[record]]
sequence_code = "LKALHYMVQTS [SACS_Y3367]"
assay_result = 0.428

